tested on: doxorubicin-resistant A2780ADR human ovarian cancer cell line; assay: Cell growth, resazurin assay, A2780ADR; format: cell-based; conditions: Homo sapiens, A2780 ADR, 72-h exposure
experimental.endpoint: IC50 (nM)

INSERT INTO measurements (chem_smiles, val) VALUES
  ('COc1cccc2c1C(=O)c1c(O)c3c(c(O)c1C2=O)C[C@@](O)(C(=O)CO)C[C@@H]3O[C@H]1C[C@H](N)[C@H](O)[C@H](C)O1', 54);

----------
tested on: APC−/−; KRASG12D/WT; P53−/− (AKP) organoids; experiment: Viability of AKP murine colorectal cancer organoids; assay type: cell-based; details: Mus musculus; 72-h exposure; read-out: IC50 against AKP organoids
experimental.endpoint: IC50

INSERT INTO results (chem_smiles, target_system, val) VALUES
  ('COc1cccc2c1C(=O)c1c(O)c3c(c(O)c1C2=O)C[C@@](O)(C(=O)CO)C[C@@H]3O[C@H]1C[C@H](N)[C@H](O)[C@H](C)O1', 'APC−/−; KRASG12D/WT; P53−/− (AKP) organoids', '9.1 nM');

# credit: patent US11203608B2
